assay: Octanol-phosphate buffer partition coefficient, log D of the compound at pH 7.4 by shake flask method; format: physicochemical
Measurement type: logD

- COc1ccc2ncc(=O)n(CCN3CC[C@@H](NCc4ccc5c(n4)NC(=O)CO5)[C@@H](F)C3)c2c1: 0.83
- CO[C@H]1CN(CCn2c(=O)ccc3ccc(C#N)cc32)CC[C@@H]1NCc1cc2c(cn1)OCCO2 (single isomer, unassigned; enantiomer 1): 1.07
- N#Cc1ccc2ccc(=O)n(CCN3CC[C@@H](NCc4cc5c(cn4)OCCO5)[C@@H](F)C3)c2c1: 0.97
- N#Cc1ccc2ccc(=O)n(CCN3CC[C@@H](NCc4cc5c(cn4)OCCO5)[C@@H](O)C3)c2c1: 0.45
- N#Cc1ccc2ccc(=O)n(CCN3CC[C@@H](NCc4ccc5c(n4)NC(=O)CO5)[C@@H](F)C3)c2c1: 0.66

P = CO[C@@H]1CN(CCn2c(=O)ccc3ccc(C#N)cc32)CC[C@H]1NCc1ccc2c(n1)NC(=O)CO2 (single isomer, unassigned; enantiomer 1)
Q = N#Cc1ccc2ccc(=O)n(CCN3CC[C@H](NCc4cc5c(cn4)OCCO5)[C@H](O)C3)c2c1
(Q) Parameter metric = logD. Return the lower-valued option from P and Q . Respond with the label that goes with your answer.
(A) Q
